# testedOn: GPR183 (Homo sapiens, UniProt P32249)
# Sequence (P32249 whole entry): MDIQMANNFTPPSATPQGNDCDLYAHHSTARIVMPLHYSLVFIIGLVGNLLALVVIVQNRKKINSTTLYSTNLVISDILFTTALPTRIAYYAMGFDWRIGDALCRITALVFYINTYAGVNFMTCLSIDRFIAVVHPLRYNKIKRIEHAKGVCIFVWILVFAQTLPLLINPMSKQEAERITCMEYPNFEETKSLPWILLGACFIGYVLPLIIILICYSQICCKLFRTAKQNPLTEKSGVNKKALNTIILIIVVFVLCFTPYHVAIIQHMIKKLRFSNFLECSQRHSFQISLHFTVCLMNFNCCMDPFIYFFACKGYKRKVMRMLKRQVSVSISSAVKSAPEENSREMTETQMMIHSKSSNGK
# testName: cell-based
# conditionContext: EC50 (potency), Gαi coupling, BRET; three experiments
Overview of reported EC50 across a group of compounds:
Expressed in nM, but write only the number.

{"inputSmiles": "COc1cc(C(=O)N2CCN(C(=O)COc3ccc(Cl)cc3C)CC2)ccc1C", "endpointValue": 51}
{"inputSmiles": "Cc1cc(Cl)ccc1OCC(=O)N1CCN(C(=O)c2ccccc2)CC1", "endpointValue": 64}
{"inputSmiles": "COc1cc(C(=O)N2CCN(C(=O)COc3cccc4ccccc34)CC2)ccc1C", "endpointValue": 757}

In: Entry under review: O=C(COc1cccc2ccccc12)N1CCN(C(=O)c2ccccc2)CC1 . Reported EC50?
Out: 660
